Each entry below carries its recorded pIC50.
# target.or.test.system: Human PDE4 (PDE4B2 truncated) (Homo sapiens)
# Sequence (Q07343 212-659 limits assumed): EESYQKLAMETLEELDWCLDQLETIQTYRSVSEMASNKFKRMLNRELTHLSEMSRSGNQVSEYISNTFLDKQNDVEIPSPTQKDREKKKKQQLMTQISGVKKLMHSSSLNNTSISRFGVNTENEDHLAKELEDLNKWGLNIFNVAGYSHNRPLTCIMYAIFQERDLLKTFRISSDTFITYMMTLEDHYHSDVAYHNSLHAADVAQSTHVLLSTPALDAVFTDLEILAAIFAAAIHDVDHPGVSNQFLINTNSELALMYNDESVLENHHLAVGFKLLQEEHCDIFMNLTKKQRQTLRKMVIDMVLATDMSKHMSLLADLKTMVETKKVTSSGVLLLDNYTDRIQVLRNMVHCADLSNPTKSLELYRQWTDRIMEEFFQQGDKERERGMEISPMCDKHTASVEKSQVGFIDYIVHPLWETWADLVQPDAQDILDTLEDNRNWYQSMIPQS
# assay.explanation: Measurement of Phosphodiesterase 4 (PDE4) inhibition, zinc and barium precipitation method with 3H-cAMP
# condition.details: PDE4B2 truncated catalytic domain, 0.3 pM enzyme, 20 min pre-incubation, 30° C. for 6 minutes
pIC50: −log10 of the molar value.
outcome.measure: pIC50

molecule	outcome.measure	test.result
N#Cc1ccc(C(O)c2ccc3c(c2)COB3O)cc1 (stereo not drawn)	pIC50	5.51
N#Cc1ccc([S+]([O-])c2ccc3c(c2)COB3O)cc1 (stereo not drawn)	pIC50	7.33
N#Cc1ccc(C(=O)c2ccc3c(c2)COB3O)cc1	pIC50	6.37
